Numbers sourced from the supplement of paper PMC9112550.

# System: Escherichia coli TOP10
# assayName: shrunken log2 fold change of peptide-encoding DNA abundance (4.5 h post-induction vs induction); higher = less antimicrobial activity (less host growth inhibition)
# assayConditions: time post-induction: 4.5 h; library: site-saturation at positions 5, 18, 19, 20
readoutName: shrunken log2 fold change
Output: the number by itself.

RRIRTRPPRLPRPRPRPAPAPRP	0.463
RRIRERPPRLPRPRPRPHENPRP	-0.365
RRIRHRPPRLPRPRPRPIQLPRP	0.128
RRIRERPPRLPRPRPRPRITPRP	-0.578

Indicate the recorded shrunken log2 fold change value for this sequence: "RRIRMRPPRLPRPRPRPKPFPRP"
0.236

Indicate the recorded shrunken log2 fold change value for this sequence: "RRIRTRPPRLPRPRPRPNRNPRP"
-0.544

Indicate the recorded shrunken log2 fold change value for this sequence: "RRIRDRPPRLPRPRPRPMEMPRP"
0.0165

---

# Test system: Escherichia coli TOP10
# assayName: shrunken log2 fold change of peptide-encoding DNA abundance (4.5 h post-induction vs induction); higher = less antimicrobial activity (less host growth inhibition)
# assayConditions: time post-induction: 4.5 h; library: site-saturation at positions 5, 18, 19, 20
Parameter class (string): assigned from measured shrunken log2 fold change. Ranges: bin 1 = under -0.1, bin 2 = from -0.1 up to 0.03, bin 3 = 0.03 and over

These solved cases illustrate the format of a correct answer.
RRIRKRPPRLPRPRPRPCCTPRP	bin 2
RRIRNRPPRLPRPRPRPTWRPRP	bin 3
RRIRTRPPRLPRPRPRPRGGPRP	bin 3
RRIRPRPPRLPRPRPRPHKVPRP	bin 1
RRIRMRPPRLPRPRPRPIQFPRP	bin 1
RRIRKRPPRLPRPRPRPFDIPRP	bin 2
RRIRQRPPRLPRPRPRPCQFPRP	bin 2
RRIRHRPPRLPRPRPRPKSQPRP	bin 1
RRIRMRPPRLPRPRPRPKYFPRP	bin 1
RRIRCRPPRLPRPRPRPDRGPRP	bin 2

Kindly review the next sequence as well.
Pick a category. Item: "RRIRNRPPRLPRPRPRPFHRPRP"
bin 1

---

# System: Escherichia coli TOP10
# assayName: shrunken log2 fold change of peptide-encoding DNA abundance (4.5 h post-induction vs induction); higher = less antimicrobial activity (less host growth inhibition)
# assayConditions: time post-induction: 4.5 h; library: site-saturation at positions 5, 18, 19, 20
shrunken log2 fold change vs -0.02: at or above is T, below is F.

RRIRLRPPRLPRPRPRPSMDPRP	F

Is the recorded value of shrunken log2 fold change equal to or greater than -0.02 for this sequence? "RRIRHRPPRLPRPRPRPRGMPRP"
T

Is the recorded value of shrunken log2 fold change equal to or greater than -0.02 for this sequence? "RRIRNRPPRLPRPRPRPIHCPRP"
F

Is the recorded value of shrunken log2 fold change equal to or greater than -0.02 for this sequence? "RRIRWRPPRLPRPRPRPPQHPRP"
T

Is the recorded value of shrunken log2 fold change equal to or greater than -0.02 for this sequence? "RRIRNRPPRLPRPRPRPEKPPRP"
F

Is the recorded value of shrunken log2 fold change equal to or greater than -0.02 for this sequence? "RRIRIRPPRLPRPRPRPVLKPRP"
F

---

Overview of recorded shrunken log2 fold change for various sequences
# Test system: Escherichia coli TOP10;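 also: peptides expressed intracellularly from a pBAD plasmid library in pooled LB shake-flask culture, induced with 0.3% L-arabinose, DNA abundance read by NGS, three biological replicates, DESeq2 with apeglm shrinkage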
# assayName: shrunken log2 fold change of peptide-encoding DNA abundance (4.5 h post-induction vs induction); higher = less antimicrobial activity (less host growth inhibition)
# assayConditions: time post-induction: 4.5 h; library: site-saturation at positions 5, 18, 19, 20
Output: the number by itself.

RRIRARPPRLPRPRPRPAYQPRP	0.106

Indicate the recorded shrunken log2 fold change value for this sequence: "RRIRNRPPRLPRPRPRPWMTPRP"
-0.189

Indicate the recorded shrunken log2 fold change value for this sequence: "RRIRLRPPRLPRPRPRPFVLPRP"
-0.513

Indicate the recorded shrunken log2 fold change value for this sequence: "RRIRERPPRLPRPRPRPHQYPRP"
-0.00989

Indicate the recorded shrunken log2 fold change value for this sequence: "RRIRQRPPRLPRPRPRPAVWPRP"
0.939

Indicate the recorded shrunken log2 fold change value for this sequence: "RRIRVRPPRLPRPRPRPCCHPRP"
-0.217

Indicate the recorded shrunken log2 fold change value for this sequence: "RRIRDRPPRLPRPRPRPMPEPRP"
0.0845
